Recorded values, source ChEMBL document CHEMBL1137941.

# Tested on: MG-22A
# measurementProtocol: In vitro cytotoxic concentration against mouse hepatoma cell line (MG-22A) using MTT coloration
# Format: functional, cell-based
So I've got a bunch of compounds here, and I need their IC50 values.
The answer should read as a number with its unit following.

Prompt: Could you please provide reported IC50 for CC1=C(C(=O)OC(C)(C)C)N2C(=O)[C@H](Cl)[C@H]2S(=O)(=O)C1 ? Thanks!
Completion: 2 µg/mL

Prompt: Could you please provide reported IC50 for COc1cccc2c1C(=O)c1c(O)c3c(c(O)c1C2=O)C[C@@](O)(C(=O)CO)C[C@@H]3O[C@H]1C[C@H](NC(=O)OCC2=C(C(=O)OC(C)(C)C)N3C(=O)[C@@H](Cl)[C@@H]3S(=O)(=O)C2)[C@@H](O)[C@H](C)O1 ? Thanks!
Completion: 0.04 µg/mL

Prompt: Could you please provide reported IC50 for COc1cccc2c1C(=O)c1c(O)c3c(c(O)c1C2=O)C[C@@](O)(C(=O)CO)C[C@@H]3O[C@H]1C[C@H](N)C(O)[C@H](C)O1 (single isomer, unassigned) ? Thanks!
Completion: 0.73 µg/mL

Prompt: Could you please provide reported IC50 for COc1cccc2c1C(=O)c1c(O)c3c(c(O)c1C2=O)C[C@@](O)(C(=O)CO)C[C@@H]3OC1C[C@H](NC(=O)OCC2=C(C(=O)OC(C)(C)C)N3C(=O)/C(=C/C(=O)OC(C)(C)C)[C@@H]3S(=O)(=O)C2)[C@@H](O)[C@H](C)O1 (some centres undefined) ? Thanks!
Completion: 0.07 µg/mL

----------
# System: N2a
# measurementProtocol: In vitro inhibitory activity against mouse neuroblastoma (neuro 2A) using CV coloration
# Assay type: functional, cell-based
So I've got a bunch of compounds here, and I need their IC50 values.
The reply should be a number in µg/mL, with the unit left off.

Prompt: Could you please provide reported IC50 for COc1cccc2c1C(=O)c1c(O)c3c(c(O)c1C2=O)C[C@@](O)(C(=O)CO)C[C@@H]3O[C@H]1C[C@H](NC(=O)OCC2=C(C(=O)OC(C)(C)C)N3C(=O)[C@@H](Cl)[C@@H]3S(=O)(=O)C2)[C@@H](O)[C@H](C)O1 ? Thanks!
Completion: 0.001

Prompt: Could you please provide reported IC50 for COc1cccc2c1C(=O)c1c(O)c3c(c(O)c1C2=O)C[C@@](O)(C(=O)CO)C[C@@H]3O[C@H]1C[C@H](N)C(O)[C@H](C)O1 (single isomer, unassigned) [DOXORUBICIN] ? Thanks!
Completion: 0.004

Prompt: Could you please provide reported IC50 for CC1=C(C(=O)OC(C)(C)C)N2C(=O)[C@H](Cl)[C@H]2S(=O)(=O)C1 ? Thanks!
Completion: 2

Prompt: Could you please provide reported IC50 for COc1cccc2c1C(=O)c1c(O)c3c(c(O)c1C2=O)C[C@@](O)(C(=O)CO)C[C@@H]3OC1C[C@H](NC(=O)OCC2=C(C(=O)OC(C)(C)C)N3C(=O)/C(=C/C(=O)OC(C)(C)C)[C@@H]3S(=O)(=O)C2)[C@@H](O)[C@H](C)O1 (some centres undefined) ? Thanks!
Completion: 0.04
